protocolText: COS7 lysate on small-molecule microarray, probe aHis, 635 nm (AID 1123);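 note: z-score combines 667nm fluorescence intensity with signal-to-noise per printed compound spot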
conditions: COS7 cell lysate, fluorescence, higher = more signal
Reported composite z-score values for the following molecules.
Returns: the value as a bare number; no unit string appended.

Sample answers from the record:
I would be grateful if you could share the reported composite z-score for [N-]=[N+]=Nc1ccccc1[C@@H]1OC(c2ccc(OCCCO)cc2)=N[C@]1(Cc1ccccc1)C(=O)N1CCOCC1 . 2.23

I would be grateful if you could share the reported composite z-score for CO[C@H]1O[C@H](CO)[C@@H](OC(=O)Nc2ccc(Oc3ccccc3)cc2)[C@H](OC(=O)Nc2ccc3c(c2)OCO3)[C@H]1OC(=O)Nc1ccc2c(c1)OCO2 . 2.19

I would be grateful if you could share the reported composite z-score for C=CCOC(=O)[C@@H]1[C@H]2C(=O)O[C@H](c3ccccc3)[C@H](c3ccccc3)N2[C@H](c2ccc(OCCOC(=O)[C@H]3C[C@H]4C(=O)N5CCC[C@H]5C(=O)N4[C@H]3c3ccc(O)cc3)cc2)[C@@]12C(=O)Nc1ccc(I)cc12 . 1.58

I would be grateful if you could share the reported composite z-score for CCOC(=O)C1=C[C@@H](C(C)(C)C)N(S(=O)(=O)c2ccc(C)cc2)[C@H]1c1ccc(F)cc1 . 1.61

More entries:
I would be grateful if you could share the reported composite z-score for C=CCOC(=O)[C@H]1[C@@H]2C(=O)O[C@@H](c3ccccc3)[C@@H](c3ccccc3)N2[C@@H](c2ccc(OCCOC(=O)[C@@H]3C[C@@H]4C(=O)N[C@@H](CC(C)C)C(=O)N4[C@@H]3c3ccc(O)cc3)cc2)[C@]12C(=O)Nc1ccccc12 . 2.62

Taken from PubChem BioAssay.
